Tested On: CDK6/cyclin D1 (Homo sapiens)
Sequence (Q00534 13-300 limits assumed): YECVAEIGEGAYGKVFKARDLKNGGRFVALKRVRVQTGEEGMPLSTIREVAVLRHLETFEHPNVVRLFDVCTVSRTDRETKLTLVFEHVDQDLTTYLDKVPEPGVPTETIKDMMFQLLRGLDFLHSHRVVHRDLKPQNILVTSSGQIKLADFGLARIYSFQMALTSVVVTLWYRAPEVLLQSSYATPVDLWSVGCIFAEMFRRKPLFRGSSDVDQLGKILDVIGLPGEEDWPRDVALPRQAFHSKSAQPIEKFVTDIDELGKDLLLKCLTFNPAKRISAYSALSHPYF
Sequence (P24385 whole entry partner): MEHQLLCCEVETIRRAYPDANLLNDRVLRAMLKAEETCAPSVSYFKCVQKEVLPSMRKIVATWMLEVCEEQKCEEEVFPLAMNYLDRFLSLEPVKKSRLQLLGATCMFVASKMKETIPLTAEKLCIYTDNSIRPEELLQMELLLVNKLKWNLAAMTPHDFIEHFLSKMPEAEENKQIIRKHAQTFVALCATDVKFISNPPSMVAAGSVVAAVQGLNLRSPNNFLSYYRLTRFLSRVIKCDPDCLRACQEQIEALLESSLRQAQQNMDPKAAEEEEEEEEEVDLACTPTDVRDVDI
Assay Name: Kinase IC50, 33P labeled isotope method
Format: biochemical
Reported Property: pIC50
Units for pIC50: none; it is -log10 of a concentration expressed in mol/L.

query: Tell me measured pIC50 for CN1CCN(Cc2ccc(NC(=O)c3n[nH]cc3Nc3ncnc4[nH]ccc34)cc2)CC1 please.
result: 8.40

----------
Below is a list of entries, each paired with its recorded melting point value.

Worked set:
O=C(Nc1ccc(CN2CCOCC2)cc1)c1n[nH]cc1Nc1nccc2ccoc12: 268 to 272 °C
CN1CCN(Cc2ccc(NC(=O)c3n[nH]cc3Nc3nccc4sccc34)cc2)CC1: 268 to 270 °C
Cc1cc2c(Nc3c[nH]nc3C(=O)Nc3ccc(CN4CCN(C)CC4)cc3)ncnc2[nH]1: 268 to 270 °C

query: Tell me measured melting point for CN1CCN(Cc2ccc(NC(=O)c3n[nH]cc3Nc3nccc4ccsc34)cc2)CC1 please.
result: 274 to 276 °C

----------
Below is a list of entries, each paired with its recorded IC50 value.
Tested on: colon cancer cell line HCT116
Assay Name: Anti-tumor activity in vitro, MTT method
Assay type: cell-based
Experimental Setup: Homo sapiens, HCT-116, 48 h, read-out: HCT116 (IC50/μM)
Give the number; µM is assumed, so skip it.

O=C(NC1CCNCC1)c1n[nH]cc1NC(=O)c1c(Cl)cccc1Cl [AT-7519, reference compound]: 2.63

Please examine the following record next.
query: Tell me measured IC50 for CN1CCN(Cc2ccc(NC(=O)c3n[nH]cc3Nc3ncnc4sccc34)cc2)CC1 please.
result: 0.25

----------
Below is a list of entries, each paired with its recorded IC50 value.
Tested On: JNK1 (Homo sapiens)
Sequence (P45983 26-321 limits assumed): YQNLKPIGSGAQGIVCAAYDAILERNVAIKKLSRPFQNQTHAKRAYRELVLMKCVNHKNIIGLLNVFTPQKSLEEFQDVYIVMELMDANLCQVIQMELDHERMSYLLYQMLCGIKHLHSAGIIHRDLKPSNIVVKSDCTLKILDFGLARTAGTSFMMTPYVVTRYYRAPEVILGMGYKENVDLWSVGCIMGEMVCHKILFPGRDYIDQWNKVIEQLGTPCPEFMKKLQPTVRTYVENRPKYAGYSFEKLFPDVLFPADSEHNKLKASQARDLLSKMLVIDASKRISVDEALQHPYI
Assay Name: Kinase IC50, 33P labeled isotope method
Format: biochemical
Experimental Setup: 20 μM ATP; read-out: IC50* JNK1
Give the number; µM is assumed, so skip it.

Cc1cc2c(Nc3c[nH]nc3C(=O)Nc3ccc(CN4CCN(C)CC4)cc3)ncnc2[nH]1 [Compound I-13]: 1.55
CN1CCN(Cc2ccc(NC(=O)c3n[nH]cc3Nc3ncnc4occc34)cc2)CC1 [Compound I-21]: 1.43
Cc1cc2c(Nc3c[nH]nc3C(=O)Nc3ccc(CN4CCN(C)CC4)cc3)nccc2s1 [Compound I-27]: 1.33

Please examine the following record next.
query: Tell me measured IC50 for Cc1cc2c(Nc3c[nH]nc3C(=O)Nc3ccc(CN4CCN(C)CC4)cc3)ncnc2s1 [Compound I-3] please.
result: 1.13

----------
Tested On: CDK2/A (Homo sapiens, UniProt P24941)
Construct: purchased
Assay Name: Inhibitory activity to CDK2 (FRET)
Type: biochemical
Experimental Setup: 1 × 10^−6 mol/L
Below is a list of entries, each paired with its recorded CDK2 inhibition % (1 × 10^−6 mol/L) value.
Give the number; % is assumed, so skip it.

Worked set:
Cc1cc2ccnc(Nc3c[nH]nc3C(=O)Nc3ccc(CN4CCOCC4)cc3)c2[nH]1 [Compound I-46]: 68.57
Cc1cc2c(Nc3c[nH]nc3C(=O)Nc3ccc(CN4CCOCC4)cc3)ncnc2[nH]1 [Compound I-14]: 65.78

query: Tell me measured CDK2 inhibition % (1 × 10^−6 mol/L) for Cc1cc2ncnc(Nc3c[nH]nc3C(=O)Nc3ccc(CN4CCOCC4)cc3)c2[nH]1 [Compound I-20] please.
result: 62.25

query: Tell me measured CDK2 inhibition % (1 × 10^−6 mol/L) for Cc1csc2ncnc(Nc3c[nH]nc3C(=O)Nc3ccc(CN4CCN(C)CC4)cc3)c12 [Compound I-5] please.
result: 51.24

query: Tell me measured CDK2 inhibition % (1 × 10^−6 mol/L) for Cc1c[nH]c2ncnc(Nc3c[nH]nc3C(=O)Nc3ccc(CN4CCN(C)CC4)cc3)c12 [Compound I-15] please.
result: 73.16

query: Tell me measured CDK2 inhibition % (1 × 10^−6 mol/L) for O=C(Nc1ccc(CN2CCOCC2)cc1)c1n[nH]cc1Nc1ncnc2cc[nH]c12 [Compound I-18] please.
result: 64.99
